test: Half life in human plasma at 500 mg, po; assay type: ADME, organism-based
Measured Endpoint: half-life (h)
Give just the numeric value; h need not be written.

The molecule listed as C[C@H]1COc2c(N3CCN(C)CC3)c(F)cc3c(=O)c(C(=O)O)cn1c23.C[C@H]1COc2c(N3CCN(C)CC3)c(F)cc3c(=O)c(C(=O)O)cn1c23.O [LEVOFLOXACIN] has a reported half-life of 7
